# protocol_text: SMARCA2 (BRM) function activators, primary screen, cell-based, luminescence, high throughput (AID 652017);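 also: 0% = vehicle wells and 100% = reference activator wells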
# protocol_conditions: MG213 cells, MMTV-luciferase reporter, dexamethasone, overnight; at 9.1 µM
The whole screen tested about 370,000 compounds, of which about 3,800 (1%) were called active. Rule as the data show it: active = activation above about 7.8%; inactive = the rest. The sample as a whole holds a higher share of actives than the screen did.
Outcome codes: active, inactive

[
  {
    "compound": "COc1cc(NC(=O)C2CCCN(S(=O)(=O)c3ccc(C(C)(C)C)cc3)C2)cc(OC)c1 (stereo not drawn)",
    "category": "inactive"
  },
  {
    "compound": "CCN(CC)C(=O)CSc1nnc(-c2cccc(OC)c2)o1",
    "category": "active"
  },
  {
    "compound": "COCC(C)n1c(SCC(=O)NC2CCCCC2C)nc2ccccc2c1=O (stereo not drawn)",
    "category": "inactive"
  },
  {
    "compound": "FC(F)(F)c1cccc(-c2nc3ccccc3n2C(c2ccccc2)c2nc3ccccc3[nH]2)c1 (stereo not drawn)",
    "category": "active"
  },
  {
    "compound": "Cc1cc(=O)[nH]c(Nc2cccc(Br)c2)n1",
    "category": "inactive"
  },
  {
    "compound": "Cc1cc(=O)[nH]c(N/N=C/c2ccc3c(c2)OCCO3)n1",
    "category": "active"
  },
  {
    "compound": "CCC(c1nc2ccccc2[nH]1)n1c(=O)c(-c2cccs2)nc2ccccc21 (stereo not drawn)",
    "category": "inactive"
  },
  {
    "compound": "CCOc1ccc(N(CC(=O)Nc2c(C)n(C)n(-c3ccccc3)c2=O)S(=O)(=O)c2ccc(Cl)s2)cc1",
    "category": "inactive"
  },
  {
    "compound": "O=C(CNC(=O)c1cc2c(s1)CCC2)Nc1ccccc1Br",
    "category": "inactive"
  },
  {
    "compound": "Cc1ccc(C)c(NC2=NCC(=O)N2c2ccc3c(c2)OCCO3)c1",
    "category": "inactive"
  },
  {
    "compound": "Cc1cc(C)n2c(Nc3c(C)cccc3C)c(CCc3ccccc3)nc2n1",
    "category": "inactive"
  },
  {
    "compound": "Cc1ccc(Cn2cc(CN3[C@@H](CC(C)C)COc4ccc(Cl)cc4S3(=O)=O)nn2)cc1",
    "category": "inactive"
  },
  {
    "compound": "Cc1ccc(-n2c(SCC(=O)Nc3cccc4ccccc34)nnc2-c2ccccn2)cc1",
    "category": "inactive"
  },
  {
    "compound": "O=C(Nc1cccc2c1CCCC2)c1ccc(F)cc1",
    "category": "inactive"
  },
  {
    "compound": "CCOC(=O)c1c(C)[nH]c(C2=NNC(=NC(C)COC)SC2)c1C (stereo not drawn)",
    "category": "active"
  },
  {
    "compound": "CCC(=O)c1c[nH]c(C(=O)NCC2CCCO2)c1 (stereo not drawn)",
    "category": "inactive"
  },
  {
    "compound": "COCC(C)n1c(SCc2ccc(C(=O)OC)o2)nc2ccccc2c1=O (stereo not drawn)",
    "category": "active"
  },
  {
    "compound": "O=Cc1ccc(OCc2cn3ccccc3n2)cc1",
    "category": "inactive"
  },
  {
    "compound": "COC(=O)c1cc2c(N)c(C(=O)c3ccc(Cl)cc3)sc2nc1C(OC)OC",
    "category": "inactive"
  },
  {
    "compound": "COCCn1c(C)cc(C(=O)CSc2nc3ccccc3c(=O)n2C(C)COC)c1C (stereo not drawn)",
    "category": "inactive"
  },
  {
    "compound": "C[C@H](C(=O)N(C)c1ccccc1)[C@@H](O)c1ccc(Cl)cc1",
    "category": "inactive"
  },
  {
    "compound": "CC(C)C(=O)NC(NC(=S)NC1CCS(=O)(=O)C1)C(Cl)(Cl)Cl (stereo not drawn)",
    "category": "inactive"
  },
  {
    "compound": "Nn1c(SCC(=O)Nc2cccc3ccccc23)nnc1-c1cc(-c2ccc(F)cc2)n[nH]1",
    "category": "inactive"
  },
  {
    "compound": "COC(=O)Cc1nnn2c1[C@H](C)[C@H](c1ccccc1Br)OCC2",
    "category": "inactive"
  },
  {
    "compound": "O=C(OC12CCCN(C1)/C(=C/c1ccccc1)C2)c1ccco1 (stereo not drawn)",
    "category": "inactive"
  },
  {
    "compound": "COCC1CCN(C(=O)C2CCC(=O)N(Cc3cccc(C(F)(F)F)c3)C2)CC1 (stereo not drawn)",
    "category": "active"
  },
  {
    "compound": "O=S1(=O)c2ccc(Br)cc2OC[C@H](Cc2ccccc2)N1Cc1cn(Cc2ccccc2)nn1",
    "category": "inactive"
  },
  {
    "compound": "CCCSC(=S)NC1CCS(=O)(=O)C1 (stereo not drawn)",
    "category": "active"
  },
  {
    "compound": "FC(F)(F)c1cccc(-c2cc3ccccc3nc2N2CCCC2)c1",
    "category": "inactive"
  },
  {
    "compound": "O=C(NC1CCCCN(Cc2ccc(Cl)cc2)C1=O)c1ccc(Br)cc1 (stereo not drawn)",
    "category": "inactive"
  },
  {
    "compound": "O=C(NCCc1ccco1)c1ccc(OCc2cn3ccccc3n2)cc1",
    "category": "inactive"
  },
  {
    "compound": "COc1ccc(N(CC(=O)Nc2ccc(C)cc2C)S(=O)(=O)c2ccccc2[N+](=O)[O-])c(OC)c1",
    "category": "inactive"
  },
  {
    "compound": "COC(=O)Cc1nnn2c1[C@H](C)[C@H](c1ccccc1[N+](=O)[O-])OCC2",
    "category": "active"
  },
  {
    "compound": "C=CCN1C(=O)[C@@H](CC(=O)NCCCOCCCC)[C@]2(C(=O)OCC)CCCCC/C=C/12",
    "category": "inactive"
  },
  {
    "compound": "COc1cccc(NC(=O)CSc2nnc(-c3cccnc3)o2)c1",
    "category": "inactive"
  },
  {
    "compound": "CC(c1c[nH]c2ccccc12)c1c(-c2ccccc2)n(C)c2ccccc12 (stereo not drawn)",
    "category": "inactive"
  },
  {
    "compound": "COCC1CCN(C(=O)C2CCC(=O)N(CC3CCCCC3)C2)CC1 (stereo not drawn)",
    "category": "inactive"
  },
  {
    "compound": "CC(=O)Nc1ccc(S(=O)(=O)N2CCN(c3ccc([N+](=O)[O-])c(NCCN4CCOCC4)c3)CC2)cc1",
    "category": "inactive"
  },
  {
    "compound": "O=C(NCCCn1ccnc1)c1cc2c(s1)CCCC2",
    "category": "inactive"
  },
  {
    "compound": "O=C(CN1CCCc2ccccc21)NCc1ccc(F)cc1",
    "category": "inactive"
  },
  {
    "compound": "Cc1ccccc1-n1cc(CNC(=O)CC2C(=O)NCCN2C/C=C/c2ccccc2)cn1 (stereo not drawn)",
    "category": "inactive"
  },
  {
    "compound": "O=C(NCC1CCCO1)c1cc2c(s1)CCCC2 (stereo not drawn)",
    "category": "active"
  },
  {
    "compound": "O=C(Nc1ccc(F)cc1)c1cc2c(s1)CCCC2",
    "category": "active"
  }
]

----------
# protocol_text: SMARCA2 (BRM) function activators, primary screen, cell-based, luminescence, high throughput (AID 652017);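 also: 0% = vehicle wells and 100% = reference activator wells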
# protocol_conditions: MG213 cells, MMTV-luciferase reporter, dexamethasone, overnight; at 9.1 µM; active compounds read high
The whole screen tested about 370,000 compounds, of which about 3,800 (1%) were called active. The full list was thinned out, with actives kept by preference.
Entries and their activation

[
  {
    "compound": "Cc1ccc(F)c(NC(=O)CCOc2ccccc2C)c1",
    "unit_info": "%",
    "activation": -0.21
  },
  {
    "compound": "O=C(c1ccncc1)N1CC[C@H]2[C@H](CCCN2Cc2ccc(F)cc2)C1",
    "unit_info": "%",
    "activation": 0.1
  },
  {
    "compound": "O=C(NCc1ccccn1)c1cnc2sccn2c1=O",
    "unit_info": "%",
    "activation": 8.52
  },
  {
    "compound": "O=C1/C(=C\\c2ccc([N+](=O)[O-])cc2)CS(=O)(=O)C/C1=C/c1ccc([N+](=O)[O-])cc1",
    "unit_info": "%",
    "activation": 16.5
  },
  {
    "compound": "C[C@]1(C(=O)NCCc2c[nH]c3ccccc23)C=C[C@@H](Cc2ccccc2)N1C(=O)c1ccccc1",
    "unit_info": "%",
    "activation": 1.41
  },
  {
    "compound": "O=C(CSc1nnc(-c2ccccn2)n1-c1ccc(Cl)cc1)Nc1ccccc1-c1ccccc1",
    "unit_info": "%",
    "activation": -4.51
  },
  {
    "compound": "Cc1ccc(CNC(=O)COc2ccc(S(=O)(=O)NC(C)C)cc2)cc1",
    "unit_info": "%",
    "activation": -3.1
  },
  {
    "compound": "N#C/C=C1\\Sc2ccccc2C(=O)N1CC(=O)N1CCN(S(=O)(=O)c2ccccc2)CC1",
    "unit_info": "%",
    "activation": 6.51
  },
  {
    "compound": "Cc1nc2ccc(C(=O)N3CCN(C(=O)C(C)(C)C)CC3)cc2n1C1CCCC1",
    "unit_info": "%",
    "activation": -3.37
  },
  {
    "compound": "O=[N+]([O-])c1ccc(CN2CC(N3CC=CC3)CS2(=O)=O)cc1 (stereo not given)",
    "unit_info": "%",
    "activation": -2.21
  }
]
